Recorded log10(GI50) by entry
test system: HCT 116 (colon) cells
On a log10 scale: recorded GI50, unit µM.

// below: answered compounds
O=C(CCCCCNC(=O)c1ccc(/C=C(/C(=O)NC2CC2)c2ccccc2)cc1)NO [Example 161]; 0.91
COc1ccc(/C(=C\c2ccc(C(=O)Nc3ccccc3N)cc2)C(=O)NC2CC2)c(OC)c1 [Example 120]; 1.02
Nc1ccccc1NC(=O)c1ccc(/C=C(/C(=O)NC2CC2)c2ccc(F)cc2Cl)cc1 [Example 117]; 1.83
Nc1ccccc1NC(=O)c1ccc(/C=C(\C(=O)NC2CC2)c2ccc(F)cc2)cc1 [Example 135]; 0.83
Cc1ccc(/C(=C\c2ccc(/C=C/C(=O)NCc3ccc(C(=O)NO)cc3)cc2)C(=O)NC2CC2)cc1 [Example 92]; 0.48
Cc1ccc(/C(=C\c2ccc(C(=O)Nc3ccccc3N)cc2)C(=O)NC2CC2)cc1 [Example 104]; 0.78
O=C(/C=C/c1ccc(/C(=C\c2ccc(OCC3CC3)cc2)C(=O)NC2CC2)cc1)NO [Example 49]; 0.00
Nc1ccccc1NC(=O)c1ccc(C=C(C(=O)NC2CC2)c2ccc(C(F)(F)F)cc2)cc1 [Example 106]; 0.60
O=C(/C=C/c1ccc(/C=C(/C(=O)NC2CC2)c2ccc(F)cc2)cc1)NCCCCCC(=O)NO [Example 75]; 1.36

Now for another entry.
So what log10(GI50) did Nc1ccccc1NC(=O)c1ccc(/C=C(/C(=O)NC2CC2)c2ccc(O)cc2)cc1 [Example 128] get with HCT 116 (colon) cells?
1.38

----------
test system: HDAC (Mouse Liver Extract); construct: Mouse liver enzyme (10 mg/ml) was diluted 1:6 with HDAC buffer; experiment: HDAC inhibition assay using Boc-Lys(Ac)-AMC substrate, mouse liver enzyme; assay type: biochemical; conditions: 1 μM
Entry flag: class 1 if HDAC Inhibition % (1 μM) reaches 60%; class 0 if it does not.

These solved cases illustrate the format of a correct answer.
COc1ccc(/C(=C\c2ccc(C(=O)NO)cc2)C(=O)NC2CC2)cc1 [Example 100]; class 0
O=C(NC1CC1)C(=Cc1ccc(C(=O)Nc2ccccc2O)cc1)c1ccc(F)cc1 [Example 126]; class 0
Nc1ccccc1NC(=O)/C=C/c1ccc(/C=C(/C(=O)N2CCOCC2)c2ccccc2F)cc1 [Example 72]; class 0
COc1ccc(/C(=C\c2ccc(/C=C/C(=O)NCCCCCC(=O)NO)cc2)C(=O)NC2CC2)cc1F [Example 88]; class 1
O=C(/C=C/c1ccc(/C=C(/C(=O)NC2CC2)c2ccccc2Cl)cc1)NCCCCCC(=O)NO [Example 77]; class 1
COc1cccc(/C(=C\c2ccc(C(=O)NO)cc2)C(=O)NC2CC2)c1 [Example 101]; class 0
O=C(/C=C/c1ccc(/C=C(/C(=O)Nc2ccccc2)c2ccc(OCC3CC3)cc2)cc1)NO [Example 46]; class 1
Nc1ccccc1NC(=O)c1ccc(/C=C(/C(=O)NC2CC2)c2ccc(F)cc2Cl)cc1 [Example 117]; class 0
Nc1ccccc1NC(=O)/C=C/c1ccc(/C=C(/C(=O)NC2CC2)c2ccc(C(F)(F)F)cc2)cc1 [Example 61]; class 0
Nc1ccccc1NC(=O)c1ccc(/C=C(/C(=O)NC2CC2)c2c(F)cccc2F)cc1 [Example 129]; class 0

Decide: HDAC Inhibition % (1 μM) of Nc1ccccc1NC(=O)c1ccc(/C=C(/C(=O)NC2CC2)c2ccc(F)cc2)cc1 [Example 105] >= 60%?
class 0
